Assign PBM binding z-score to each entry below.
- Test system: RARg homodimer (NR concentration 270 nM)
- ASSAY_SUMMARY: PBM binding z-score (relative to random genomic background probes); higher = stronger binding; sequences stand for … in GC…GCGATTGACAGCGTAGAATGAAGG
Numbers only.

Some sequences with recorded PBM binding z-score:
Can you share its PBM binding z-score? I mean this sequence: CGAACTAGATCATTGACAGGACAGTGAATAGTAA
0.25

What would you report for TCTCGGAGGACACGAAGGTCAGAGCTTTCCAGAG ?
3.63

What would you report for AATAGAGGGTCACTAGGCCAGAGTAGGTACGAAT ?
4.52

What would you report for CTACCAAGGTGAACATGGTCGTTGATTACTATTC ?
1.14

What would you report for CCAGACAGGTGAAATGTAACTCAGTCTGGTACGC ?
0.478

What would you report for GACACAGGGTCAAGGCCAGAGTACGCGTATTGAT ?
5.02

Please look at the items below and tell me PBM binding z-score for each one, in order.
1. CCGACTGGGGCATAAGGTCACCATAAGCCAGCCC
2. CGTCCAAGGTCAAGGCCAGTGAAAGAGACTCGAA
3. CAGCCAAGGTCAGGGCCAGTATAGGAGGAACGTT
4. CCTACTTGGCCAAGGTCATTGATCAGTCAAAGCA
5. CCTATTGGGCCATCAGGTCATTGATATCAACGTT
6. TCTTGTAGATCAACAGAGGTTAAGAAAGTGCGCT

[4.18, 6.13, 5.59, 3.47, 1.88, 0.565]
